- run-description: collision cross section in nitrogen (drift tube, single-field); higher = larger gas-phase ion size;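 also: chemical standards at 10 µM analysed by drift tube IMS-QTOF MS in about 3.95 torr nitrogen, mean of duplicate injections differing ≤1%, mass error below 10 ppm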
- particulars: ion source: APCI; ion mode: Positive; ion type: [M]+ (permanent cation)
measurement-kind: collision cross section in nitrogen (Å²)

These solved cases illustrate the format of a correct answer.
molecule	measurement-kind	value-units	test-result
CCCCCCCCCCCC[N+](C)(C)C [Dodecyltrimethylammonium chloride]	collision cross section in nitrogen	Å²	175.2
CCCCCCCCCCCCCC[N+](C)(C)C [Tetradonium bromide]	collision cross section in nitrogen	Å²	185.1
CCCCCCCCCCCCCCCC[N+](C)(C)C [Hexadecyltrimethylammonium bromide]	collision cross section in nitrogen	Å²	193.1
CCCC[N+](C)(CCCC)CCCC [N,N-Dibutyl-N-methylbutan-1-aminium chloride]	collision cross section in nitrogen	Å²	153.8
CCCCCCCCCCCCCCCC[n+]1ccccc1 [Cetylpyridinium chloride]	collision cross section in nitrogen	Å²	193.3

I. CCNc1cc2[o+]c3cc(NCC)c(C)cc3c(-c3ccccc3C(=O)OCC)c2cc1C
II. CCCCn1cc[n+](C)c1 [1-Butyl-3-methylimidazolium chloride]
Exercise: Among I and II , which shows a numerically higher collision cross section in nitrogen result? Your choice should be expressed through its label.
Key: I
(I: 218.3 Å², II: 129 Å²)

###

- run-description: collision cross section in nitrogen (drift tube, single-field); higher = larger gas-phase ion size
- particulars: ion type: [M+H]; ion source: ESI; ion mode: Positive
measurement-kind: collision cross section in nitrogen (Å²)

compound	test-result
Cc1ccc(-c2nc3ccccc3o2)cc1 [2-(4-Methylphenyl)-1,3-benzoxazole]	145.5
CN(C)c1ccc(N=O)cc1 [N,N-Dimethyl-4-nitrosoaniline]	128.4
COC(=O)c1c(C(F)F)nc(C(F)(F)F)c(C2=NCCS2)c1CC(C)C [Thiazopyr]	182.1

I. Cc1cc(N)n(-c2ccccc2)n1 [3-Methyl-1-phenyl-1H-pyrazol-5-amine]
II. Cc1c(C(=O)O)c(O)cc2c1C(=O)c1c(O)c([C@@H]3O[C@H](CO)[C@@H](O)[C@H](O)[C@H]3O)c(O)c(O)c1C2=O [Carminic acid]
Exercise: Please state the entry with greater collision cross section in nitrogen among I and II . Answer with the label corresponding to your selection.
Key: II
(II: 209.1 Å², I: 136.5 Å²)

###

- run-description: collision cross section in nitrogen (drift tube, single-field); higher = larger gas-phase ion size
- particulars: ion type: [M-H]; ion source: ESI; ion mode: Negative
measurement-kind: collision cross section in nitrogen (Å²)

compound	measurement-kind	test-result
O=C1NC(=O)[C@@H]2CC=CC[C@H]12 [cis-1,2,3,6-Tetrahydrophthalimide]	collision cross section in nitrogen	133
O=S(=O)(O)c1cccc2ccccc12 [Sodium 1-naphthalenesulfonate]	collision cross section in nitrogen	141.6
Clc1ccc2[nH]nnc2c1 [5-Chlorobenzotriazole]	collision cross section in nitrogen	123.2
O=C(Nc1ccc2[nH]ccc2c1)c1cc2cc(F)ccc2n1Cc1cccc(F)c1	collision cross section in nitrogen	193.8
Cc1cc(SC2=C(O)C[C@@](CCc3ccc(N)cc3)(C(C)C)OC2=O)c(C(C)(C)C)cc1CO [CI-1029]	collision cross section in nitrogen	214.2

P. O=S(=O)(O)c1ccc2cc(O)ccc2c1 [Potassium 6-hydroxynaphthalene-2-sulfonate]
Q. COCCOC[C@H](CC1(C(=O)N[C@H]2CC[C@@H](C(=O)O)CC2)CCCC1)C(=O)Oc1ccc2c(c1)CCC2 [Candoxatril]
Exercise: Kindly compare P with Q and tell me which has the lower collision cross section in nitrogen figure. Lab log: write the label of the selected item as the result.
Key: P
(P: 148.2 Å², Q: 226.4 Å²)
